Test system: GSK3B
Conditions: concentration: 1 μM,replicates: in singlicate; n = 1
measured.quantity: %Inh (%)
Answers are plain numbers, in %.

compound: C[C@@H]1CCN(C(=O)CC#N)C[C@@H]1N(C)c1ncnc2[nH]ccc12
target.of.assay: GSK3B
%Inh [%]: 0
--
compound: O=C(NCCCN1CCOC1=O)c1cnc(NCc2cc(Cl)ccc2Cl)nc1NC1CCCC1
target.of.assay: GSK3B
%Inh [%]: 0
--
compound: Cl.Cl.NC[C@H](CC1CCCCC1)NC(=O)c1cc(Br)c(-c2ccnc3[nH]ccc23)s1
target.of.assay: GSK3B
%Inh [%]: 13
--
compound: CCN(CC)CCCCNc1ncc2cc(-c3c(Cl)cccc3Cl)c(NC(=O)NC(C)(C)C)nc2n1
target.of.assay: GSK3B;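 further: KINOMEscan kinase panel screen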
%Inh [%]: 26

Dear reader, for each entry below, please note its %Inh.
1. C[C@H]1Oc2cc(cnc2N)-c2c(nn(C)c2C#N)CN(C)C(=O)c2ccc(F)cc21
2. Cl.Cl.Nc1nc(-c2ccc3c(N)n[nH]c3c2)cc(N2CCCC(NC(=O)c3ccccc3)C2)n1 (stereo not shown)
3. CN(C)CC(O)COc1ccc(Nc2nccc(-c3cnn4nc(N5CCOCC5)ccc34)n2)cc1 (stereo not shown)

result:
1: 0; 2: 15; 3: 61
